- subject of test: Myo3, P36006
- test method notes: SPOT array
- measurement parameters: median of control spots 468
recorded metric: SPOT intensity

RPPRPPPKPLHLRTE :: 121

a. RSVKRPRRAPRPVVS
b. HRRRRVFSIPSLKSI
Select one: a or b . Criterion: greater recorded SPOT intensity. Could you answer with the label of the item you picked?
a

a. QRKSLRRPTLSKPAV
b. HVRRSILALPLGVLL
// which entry reports the smaller SPOT intensity, a or b ? Answer format: the label of the selected item.
b

I. RPKRRAPPPVPKKPS
II. LYEAMPPTLPHRDWK
Could you tell me which of these two has the smaller SPOT intensity figure? First: I Second: II To answer, give the label that identifies your chosen option.
II
